experimental-target: P. falciparum apicoplast DNA polymerase (Pf-apPOL) (Plasmodium falciparum, UniProt Q8ILY1)
Sequence (Q8ILY1 entry or part of it): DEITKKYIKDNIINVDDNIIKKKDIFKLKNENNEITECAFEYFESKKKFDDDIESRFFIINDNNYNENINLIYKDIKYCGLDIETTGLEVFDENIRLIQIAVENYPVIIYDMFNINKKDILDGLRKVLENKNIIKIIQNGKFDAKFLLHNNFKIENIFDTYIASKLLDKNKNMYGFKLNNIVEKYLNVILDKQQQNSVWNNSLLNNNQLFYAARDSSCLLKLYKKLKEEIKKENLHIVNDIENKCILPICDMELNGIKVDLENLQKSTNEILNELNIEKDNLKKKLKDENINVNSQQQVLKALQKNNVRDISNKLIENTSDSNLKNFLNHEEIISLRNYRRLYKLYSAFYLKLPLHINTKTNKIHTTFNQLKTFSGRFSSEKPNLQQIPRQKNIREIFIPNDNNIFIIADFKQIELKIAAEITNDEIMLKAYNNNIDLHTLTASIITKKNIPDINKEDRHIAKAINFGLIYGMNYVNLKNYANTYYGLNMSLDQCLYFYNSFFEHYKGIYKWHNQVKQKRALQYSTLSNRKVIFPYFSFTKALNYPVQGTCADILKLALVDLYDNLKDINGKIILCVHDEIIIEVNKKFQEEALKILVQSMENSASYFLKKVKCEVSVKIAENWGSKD
assay-summary: Fluorescence-based high-throughput DNA polymerase assay (molecular beacon), primary screen and dose-response;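 for % inhibition Apol 40': compound concentration given in µM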
Type: biochemical
details: DRC-2; 40'; concentration 40
measurement-kind: % inhibition Apol 40' (%)
One number for each entry, in %.

Solved entries:
- compound: "Cc1ccc(-n2nnc(C(=O)O)c2-c2ccccn2)c(F)c1 [Molecule 54, Cc1ccc(c(c1)F)n1nnc(c1c1ccccn1)C(=O)O]"
  % inhibition Apol 40' [%]: 48
- compound: "O=C(CSc1nc2ccccc2s1)Nc1ncc([N+](=O)[O-])s1 [KU0019667]"
  % inhibition Apol 40' [%]: -29
- compound: "O=C1CSC2=NC3=C(CCc4ccccc43)C(c3cccs3)N12 (stereo not shown) [Molecule 59, O=C1CSC2=NC3=C(C(N12)c1cccs1)CCc1c3cccc1]"
  % inhibition Apol 40' [%]: 45

For every listed record, write down its % inhibition Apol 40'.
1. O=C(O)c1cccc(N2N=C(C(F)(F)F)/C(=C/c3ccc(-c4ccccc4[N+](=O)[O-])o3)C2=O)c1 [Molecule 100]
2. O=C(NNC(=O)c1ccc(Cl)cc1)C(=O)NNC(=O)c1ccc(Cl)cc1 [Molecule 25]
3. CCCCOC(=O)CCCCCN1C(=O)C(=Cc2ccc(OC)cc2)SC1=S [Molecule 75]
4. Cc1ccccc1C(=O)N1CCc2c(nc3cc(-c4ccccc4)[nH]n3c2=O)C1 [Molecule 41]
5. COc1ccc(NC(=O)Cn2ccc3c(=O)[nH]ccc32)cc1Cl [Molecule 10, COc1ccc(cc1Cl)NC(=O)Cn1ccc2c1cc[nH]c2=O]
6. Cc1ccc(C)n1-c1ccc(C(=O)NNC(=O)c2ccc3nccnc3c2)cc1 [Molecule 53]
7. O=C(Nc1cccc(C(=O)Nc2ccc(S(=O)(=O)[O-])c3cc(S(=O)(=O)[O-])cc(S(=O)(=O)[O-])c23)c1)Nc1cccc(C(=O)Nc2ccc(S(=O)(=O)[O-])c3cc(S(=O)(=O)[O-])cc(S(=O)(=O)[O-])c23)c1.[Na+].[Na+].[Na+].[Na+].[Na+].[Na+] [Molecule 39]

1: 76; 2: 58; 3: 66; 4: 61; 5: 62; 6: 64; 7: 75

----------
Assign % inhibition apPOL 180' 5 to each entry below.
experimental-target: P. falciparum apicoplast DNA polymerase (Pf-apPOL) (Plasmodium falciparum, UniProt Q8ILY1)
assay-summary: Fluorescence-based high-throughput DNA polymerase assay (molecular beacon), primary screen and dose-response
Assay type: biochemical
details: DRC-1; read at 180'; concentration 5
Give bare numbers, in %.

For every listed record, write down its % inhibition apPOL 180' 5.
1. Cn1nc(-c2nnc(-c3ccccc3F)o2)c2c1CCN(C(=O)c1ccccc1Cl)C2 [Molecule 34]
2. Cc1ccc(N2CCC(NC(=O)Cc3cccs3)C2=O)cc1C (stereo not shown) [Molecule 57, O=C(NC1CCN(C1=O)c1ccc(c(c1)C)C)Cc1cccs1]
3. Cc1ccsc1Cn1c(C)ccc1C [Molecule 70, Cc1ccsc1Cn1c(C)ccc1C]
4. Cc1cccc(-c2noc(C(=O)NNC(=O)C(Cl)(Cl)Cl)n2)c1 [KU0266208]

1: 28; 2: 1.4295; 3: -7.921; 4: -5.2438

----------
experimental-target: P. falciparum apicoplast DNA polymerase (Pf-apPOL) (Plasmodium falciparum, UniProt Q8ILY1)
assay-summary: Fluorescence-based high-throughput DNA polymerase assay (molecular beacon), primary screen and dose-response
Assay type: biochemical
details: DRC-1; 180'; conc 80
measurement-kind: % inhibition apPOL 180' (%)
One number for each entry, in %.

- compound: "CC(C)CCNC(=O)c1cnn2c(O)cc(CSc3ccc(Cl)cc3)nc12 [Molecule 101]"
  experimental-target: "P. falciparum apicoplast DNA polymerase (Pf-apPOL) (Plasmodium falciparum, UniProt Q8ILY1)"
  % inhibition apPOL 180', %: 94.6304
- compound: "COc1ccccc1C1CC(=O)Oc2cc3c(cc21)OCO3 (stereo not shown) [KU0104502]"
  experimental-target: "P. falciparum apicoplast DNA polymerase (Pf-apPOL) (Plasmodium falciparum, UniProt Q8ILY1)"
  % inhibition apPOL 180', %: 93.9211
- compound: "O=C(O)c1ccc(COc2cc([N+](=O)[O-])cc3cccnc23)cc1 [KU0058403]"
  experimental-target: "P. falciparum apicoplast DNA polymerase (Pf-apPOL) (Plasmodium falciparum, UniProt Q8ILY1)"
  % inhibition apPOL 180', %: 94.2886
- compound: "N#CC(C#N)=C1SCN(c2cccc(Cl)c2)CS1 [Molecule 29, N#CC(=C1SCN(CS1)c1cccc(c1)Cl)C#N]"
  experimental-target: "P. falciparum apicoplast DNA polymerase (Pf-apPOL) (Plasmodium falciparum, UniProt Q8ILY1)"
  % inhibition apPOL 180', %: 94.962
- compound: "COC(=O)c1sc(-c2ccc(C(C)(C)C)cc2)cc1NC(=O)CCC(=O)O [Molecule 87]"
  experimental-target: "P. falciparum apicoplast DNA polymerase (Pf-apPOL) (Plasmodium falciparum, UniProt Q8ILY1)"
  % inhibition apPOL 180', %: 95.0797

For every listed record, write down its % inhibition apPOL 180'.
1. CCOc1nc2cccc(C(=O)OC(C)OC(=O)OC3CCCCC3)c2n1Cc1ccc(-c2ccccc2-c2nnn[nH]2)cc1 (stereo not shown) [Molecule 94]
2. Cc1cc(C)c2c(c1)C1C=CCC1C(c1ccc(C(=O)O)cc1)N2 (stereo not shown) [Molecule 102]
3. Cc1ccc(NC(=O)Cn2ccc3c(=O)[nH]ccc32)c(C)c1 [KU0205125]
4. C=CCOc1c(Br)cc(Br)cc1/C=C1\SC(=N)NC1=O [KU0051640]
5. Cc1ccccc1NC(=O)Cn1ccc2c(=O)[nH]ccc21 [Molecule 50, O=C(Cn1ccc2c1cc[nH]c2=O)Nc1ccc(cc1)C]

1: 93.1007; 2: 95.0431; 3: 92.9849; 4: 95.6515; 5: 93.6476

// data source = paper PMC9090415
